# Tested on: human red blood cells (hRBC)
# Experiment Summary: Hemolysis of human red blood cells
# Assay type: cell-based
# Assay Conditions: red cells of human, 1 h, 100
Where a SMILES comes first, the peptide text is derived from it. [ ]: non-standard residue; d: D form. Cha = N[C@@H](CC1CCCCC1)C(=O)O; Chg = N[C@H](C(=O)O)C1CCCCC1; Tle = CC(C)(C)[C@H](N)C(=O)O; dDab = NCC[C@@H](N)C(=O)O; hSer = N[C@@H](CCO)C(=O)O; Orn = NCCC[C@H](N)C(=O)O; Dab = NCC[C@H](N)C(=O)O; Nva = CCC[C@H](N)C(=O)O
Measurement Label: Hemolysis at 100 μg/ml

Check out these entries, answers already filled in.
compound="CC(C)[C@@H]1NC(=O)[C@@H]2CCCN2C(=O)[C@H]2CCCN2C(=O)[C@H](CO)NC(=O)[C@H](C)NC(=O)[C@H](CC2CCCCC2)NC(=O)[C@H](CCN)NC(=O)[C@H](Cc2c[nH]c3ccccc23)NC(=O)[C@H](CCN)NC(=O)[C@@H](CCN)NC(=O)[C@H](CCCN)NC(=O)[C@H](CCN)NC(=O)[C@H](Cc2ccc(O)cc2)NC(=O)[C@H](CO)NC1=O [compound 92] (cyclo(VSY[Dab][Orn][dDab][Dab]W[Dab][Cha]AS[dP]P))" obs_value=5%
compound="CCC[C@@H]1NC(=O)[C@H](CCN)NC(=O)[C@H](Cc2c[nH]c3ccccc23)NC(=O)[C@H](CCN)NC(=O)[C@@H](CCN)NC(=O)[C@H](CCCN)NC(=O)[C@H](CCN)NC(=O)[C@H](C(C)(C)C)NC(=O)[C@H](CO)NC(=O)[C@H](Cc2c[nH]c3ccccc23)NC(=O)[C@@H]2CCCN2C(=O)[C@H]2CCCN2C(=O)[C@H](CO)NC(=O)[C@H](C)NC1=O [compound 67] (cyclo(WS[Tle][Dab][Orn][dDab][Dab]W[Dab][Nva]AS[dP]P))" obs_value=1%
compound="C[C@@H]1NC(=O)[C@H](Cc2c[nH]c3ccccc23)NC(=O)[C@@H]2CCCN2C(=O)[C@H]2CCCN2C(=O)[C@H](CO)NC(=O)[C@H](C)NC(=O)[C@H](C(C)(C)C)NC(=O)[C@H](CCN)NC(=O)[C@H](Cc2c[nH]c3ccccc23)NC(=O)[C@H](CCN)NC(=O)[C@@H](CCN)NC(=O)[C@H](CCCN)NC(=O)[C@H](CCN)NC(=O)[C@H](C2CCCCC2)NC1=O [compound 3] (cyclo(WA[Chg][Dab][Orn][dDab][Dab]W[Dab][Tle]AS[dP]P))" obs_value=2.5%
compound="CC(C)C[C@@H]1NC(=O)[C@@H]2CCCN2C(=O)[C@H]2CCCN2C(=O)[C@H](CO)NC(=O)[C@H](C)NC(=O)[C@H](C(C)(C)C)NC(=O)[C@H](CCO)NC(=O)[C@H](Cc2c[nH]c3ccccc23)NC(=O)[C@H](CCN)NC(=O)[C@@H](CCN)NC(=O)[C@H](CCCN)NC(=O)[C@H](CCN)NC(=O)[C@H](Cc2ccc(O)cc2)NC(=O)[C@H](CO)NC1=O [compound 37] (cyclo(LSY[Dab][Orn][dDab][Dab]W[hSer][Tle]AS[dP]P))" obs_value=1%

Now look at this one.
Fill in Hemolysis at 100 μg/ml for CC(C)C[C@@H]1NC(=O)[C@@H]2CCCN2C(=O)[C@H]2CCCN2C(=O)[C@H](CO)NC(=O)[C@H](C)NC(=O)[C@H](C(C)(C)C)NC(=O)[C@H](CCN)NC(=O)[C@H](Cc2c[nH]c3ccccc23)NC(=O)[C@H](CCN)NC(=O)[C@@H](CCN)NC(=O)[C@H](CCCN)NC(=O)[C@H](CCN)NC(=O)[C@H](Cc2ccc(O)cc2)NC(=O)[C@H](CO)NC1=O [compound 36] (cyclo(LSY[Dab][Orn][dDab][Dab]W[Dab][Tle]AS[dP]P)) tested with human red blood cells (hRBC).
1%
